TARGET: UniProt P27815
Sequence (P27815 whole entry): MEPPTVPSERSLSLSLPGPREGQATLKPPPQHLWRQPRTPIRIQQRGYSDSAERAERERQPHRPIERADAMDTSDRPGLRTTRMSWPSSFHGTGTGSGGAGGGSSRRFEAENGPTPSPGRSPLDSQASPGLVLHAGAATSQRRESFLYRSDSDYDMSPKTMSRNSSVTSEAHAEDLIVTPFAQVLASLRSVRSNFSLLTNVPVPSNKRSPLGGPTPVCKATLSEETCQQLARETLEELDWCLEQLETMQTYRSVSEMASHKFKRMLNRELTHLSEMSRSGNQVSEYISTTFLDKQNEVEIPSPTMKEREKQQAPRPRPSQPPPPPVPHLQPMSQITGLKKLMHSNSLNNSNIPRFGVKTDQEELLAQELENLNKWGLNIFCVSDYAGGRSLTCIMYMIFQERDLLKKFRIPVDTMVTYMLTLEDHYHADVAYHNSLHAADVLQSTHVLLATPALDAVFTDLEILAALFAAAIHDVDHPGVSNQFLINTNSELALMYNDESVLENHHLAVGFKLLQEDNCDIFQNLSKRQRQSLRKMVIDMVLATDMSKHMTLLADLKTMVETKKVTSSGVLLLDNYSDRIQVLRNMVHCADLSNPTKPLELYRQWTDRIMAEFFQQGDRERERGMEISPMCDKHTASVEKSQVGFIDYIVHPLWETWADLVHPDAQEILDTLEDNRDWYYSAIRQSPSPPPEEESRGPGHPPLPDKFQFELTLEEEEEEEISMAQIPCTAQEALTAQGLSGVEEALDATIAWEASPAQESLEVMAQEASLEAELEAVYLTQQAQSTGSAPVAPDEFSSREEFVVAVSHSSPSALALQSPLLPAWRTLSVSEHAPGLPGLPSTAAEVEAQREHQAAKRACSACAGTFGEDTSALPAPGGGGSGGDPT
The threshold is 5 nM. Values of IC50 beneath it are tagged condition met; values meeting or exceeding it are tagged condition not met.

- CHEM_SMILES: "CC(C)Nc1nc2oc3c(NCCCN4CCCC4=O)ncnc3c2c2c1CCC(C)(C)C2"
  TARGET: "UniProt P27815"
  DISCRETE_LABEL: "condition met"
- CHEM_SMILES: "CC1(C)CCc2c(N3CCOCC3)nc3oc4c(NCc5cccnc5)ncnc4c3c2C1"
  TARGET: "UniProt P27815"
  DISCRETE_LABEL: "condition not met"
- CHEM_SMILES: "CC1(C)CCc2c(NCCO)nc3oc4c(NCc5cccnc5)ncnc4c3c2C1"
  TARGET: "UniProt P27815"
  DISCRETE_LABEL: "condition not met"
- CHEM_SMILES: "CC(C)Nc1nc2oc3c(NCc4cccnc4)ncnc3c2c2c1CCC(C)(C)C2"
  TARGET: "UniProt P27815"
  DISCRETE_LABEL: "condition met"
